Target: Recombinant human PDK1 enzyme (aa 52-556) (Homo sapiens (Human), UniProt O15530)
Sequence (O15530 52-556): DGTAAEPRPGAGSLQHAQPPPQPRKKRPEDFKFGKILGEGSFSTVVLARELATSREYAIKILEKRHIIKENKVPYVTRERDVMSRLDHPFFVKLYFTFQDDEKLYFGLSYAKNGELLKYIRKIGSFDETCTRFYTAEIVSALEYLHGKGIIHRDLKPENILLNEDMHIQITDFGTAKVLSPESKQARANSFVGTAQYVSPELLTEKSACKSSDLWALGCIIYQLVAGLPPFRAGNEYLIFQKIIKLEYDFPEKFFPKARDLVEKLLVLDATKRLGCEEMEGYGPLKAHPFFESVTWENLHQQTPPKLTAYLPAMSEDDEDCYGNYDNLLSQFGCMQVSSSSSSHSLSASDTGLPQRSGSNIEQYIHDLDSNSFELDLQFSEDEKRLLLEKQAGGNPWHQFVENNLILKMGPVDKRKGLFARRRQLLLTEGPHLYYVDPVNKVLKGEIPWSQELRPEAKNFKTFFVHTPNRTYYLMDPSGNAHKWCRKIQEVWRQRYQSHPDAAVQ
Experiment: PDK1 kinase assay
Conditions: 25 μM ATP solution with gamma-P33-ATP, PDKtide substrate, 90 min at RT
pIC50: −log10 of the molar value.
readout-type: pIC50

// solved cases for pIC50 follow
| molecule | pIC50 |
| --- | --- |
| CCn1cnc2cnc3ccc(C#CCNC(=O)c4cncn(Cc5ccc(F)c(F)c5)c4=O)cc3c21 [III-31] | 9.00 |
| Cc1nc2cnc3ccc(C#CCNC(=O)c4cccn([C@@H](C)c5ccc(F)c(F)c5)c4=O)cc3c2n1C(C)C [II-17] | 9.00 |
| O=C(NCC#Cc1ccc2ncc3ncn([C@@H]4CCNC4)c3c2c1)c1cccn([C@H](CO)c2ccccc2)c1=O [III-1] | 7.74 |
| O=C(NCC#Cc1ccc2ncc3ncn(CCO)c3c2c1)c1cncn(Cc2ccc(F)c(F)c2)c1=O [I-2] | 8.40 |
| Cc1nc2cnc3ccc(C#CCNC(=O)c4cncn(Cc5ccc(F)c(F)c5)c4=O)cc3c2n1C(C)C [II-10] | 8.70 |
| Cc1nc2cnc3ccc(C#CCNC(=O)c4cccn([C@@H](C)C5CCCCC5)c4=O)cc3c2n1C(C)C [II-14] | 7.47 |

I. Cc1nc2cnc3ccc(C#CCNC(=O)c4cccn([C@@H](CN)c5ccc(F)c(F)c5)c4=O)cc3c2n1C(C)C [II-30]
II. CN1CCC[C@@H](n2cnc3cnc4ccc(C#CCNC(=O)c5cncn(Cc6ccc(F)c(F)c6)c5=O)cc4c32)C1 [I-9]
III. COCCc1nc2cnc3ccc(C#CCNC(=O)c4cncn(Cc5ccc(F)c(F)c5)c4=O)cc3c2n1C [V-5]
IV. CN1CCC(n2cnc3cnc4ccc(C#CCNC(=O)c5cc(Cl)nn(Cc6ccc(F)c(F)c6)c5=O)cc4c32)CC1 [III-14]
V. NC[C@@H](c1ccccc1)n1cccc(C(=O)NCC#Cc2ccc3ncc4ncn(C5CCOC5)c4c3c2)c1=O (stereo partly shown) [III-29]
Q: Hey, can you sort those molecules up there by pIC50, smallest first? I would appreciate it if you listed the labels in the requested order.
A: V, III, II, I, IV
